- run.description: Epithelial lining fluid penetration in infected rats
- Type: in vivo
- assay.setup: rat, epithelial lining fluid (total drug) / plasma (free drug); infected rats (data on file); read-out: Ratio of the total drug epithelial lining fluid AUC to the free drug plasma AUC
measured.quantity: Kp
Just the number, please, no unit attached.

## Input Fill in the blank: the reported Kp of Cc1nc(NNC(=O)[C@H](CC2CCCC2)CN(O)C=O)c(F)c(N2CCN3CCOC[C@@H]3C2)n1 [GSK1322322] is ____.
## Output 3.3

---

The entries below are paired with their reported MIC.
- Tested on: S. aureus
- run.description: MIC by CLSI broth microdilution, S. aureus isolates
- Assay type: cell-based, Staphylococcus aureus
- assay.setup: Staphylococcus aureus, S. aureus X32601

molecule	MIC
Cc1nc(NNC(=O)[C@H](CC2CCCC2)CN(O)C=O)c(F)c(N2CCN3CCOC[C@@H]3C2)n1 [GSK1322322]	1 µg/mL
CC[C@H]1OC(=O)[C@H](C)[C@@H](O[C@H]2C[C@@](C)(OC)[C@@H](O)[C@H](C)O2)[C@H](C)[C@@H](O[C@@H]2O[C@H](C)C[C@H](N(C)C)[C@H]2O)[C@](C)(O)C[C@@H](C)CN(C)[C@H](C)[C@@H](O)[C@]1(C)O [AZM, azithromycin]	> 64 µg/mL
Cc1onc(-c2ccccc2)c1C(=O)N[C@@H]1C(=O)N2[C@@H]1SC(C)(C)[C@@H]2C(=O)O [Oxacillin]	> 64 µg/mL
C[C@H]1COc2c(N3CCN(C)CC3)c(F)cc3c(=O)c(C(=O)O)cn1c23 [LVX, levofloxacin]	32 µg/mL

With those in mind, consider the next molecule.
## Input Fill in the blank: the reported MIC of CC(=O)NC[C@H]1CN(c2ccc(N3CCOCC3)c(F)c2)C(=O)O1 [LZD, linezolid] is ____.
## Output 1 µg/mL
